System: SF-539
assay summary: NCI tumour cell line growth inhibition, 48 h
Activity calls are given as the source filed them. Rule as the data show it: active = GI50 up to about 1.1 µM and inactive = higher.
endpoint: GI50

INSERT INTO results (compound, endpoint, value_observed) VALUES
  ('c1ccc2[nH]c(-c3cscn3)nc2c1', 'GI50', '> 100 µM (inactive)'),
  ('O=C1/C(=C/c2ccc(O)c(O)c2)CC/C1=C\c1ccc(O)c(O)c1', 'GI50', '2.49 µM (inactive)'),
  ('O=C1NC(N2CCOCC2)=N/C1=C\c1ccc(O)cc1', 'GI50', '> 100 µM (inactive)'),
  ('O=[N+]([O-])c1ccc2c(c1)C1=C(CO2)Cc2ccccc2O1', 'GI50', '23.9 µM (inactive)'),
  ('N#CC(/C(=N/NC(=O)C(=O)NN)C(=O)NC12CC3CC(CC(C3)C1)C2)c1ccccc1 (stereo unspecified)', 'GI50', '> 100 µM (inactive)'),
  ('OC(CC1CCCCN1)c1ccc2c(c1)oc1ccccc12 (stereo unspecified)', 'GI50', '46.1 µM (inactive)'),
  ('Nc1nc(SCc2ccc([N+](=O)[O-])cc2)nc2c1ncn2C1OC(COP(=O)(O)O)C(O)C1O (stereo unspecified)', 'GI50', '> 100 µM (inactive)'),
  ('O=C(O)/C=C\C(=O)Nc1ccccn1', 'GI50', '> 100 µM (inactive)'),
  ('COc1ccc([N+](=O)[O-])c2c(NCCCN(C)C)c(C)c(C)nc12', 'GI50', '> 100 µM (inactive)'),
  ('Cc1ccc2c(c1)C=CC(C#N)N2C(=O)Oc1ccccc1 (stereo unspecified)', 'GI50', '60.7 µM (inactive)'),
  ('O=C1C(Cl)=C(N2CCN(CCOCCO)CC2)C(=O)c2c(O)ccc(O)c21', 'GI50', '1.75 µM (inactive)');

###

Here, each record is paired with measured GI50 data.
Test system: SK-MEL-2
assay summary: NCI tumour cell line growth inhibition, 48 h
The source made the active and inactive calls. No stated cut-off is given here; in the data, active = GI50 up to about 1.1 µM and inactive = higher.
endpoint: GI50

INSERT INTO assay_data (molecule, endpoint, value_observed) VALUES
  ('COc1ccc2c(c1)CC1NC2Cc2ccccc21 (stereo unspecified)', 'GI50', '> 100 µM (inactive)'),
  ('Cc1ccc(C)c(COCCOCn2cc(Br)c(N)nc2=O)c1', 'GI50', '> 100 µM (inactive)'),
  ('Cc1ccccc1N(CC(=O)O)S(=O)(=O)c1ccccc1', 'GI50', '> 100 µM (inactive)'),
  ('N#CCc1nc(O)c2ccccc2n1', 'GI50', '> 100 µM (inactive)'),
  ('COc1ccc(/N=C2/C(=N/c3ccc(OC)cc3)N(c3ccccc3)C(=S)N2N=C=C2Sc3ccccc3N2C)cc1', 'GI50', '> 100 µM (inactive)'),
  ('CC12CC(=O)C3C(CCC4=CC(=O)CCC43C)C1CC=C2CC(=O)O (stereo unspecified)', 'GI50', '> 100 µM (inactive)'),
  ('C=C=C(C(=O)OC)[S+]([O-])c1ccccc1[N+](=O)[O-] (stereo unspecified)', 'GI50', '> 100 µM (inactive)'),
  ('C#C[C@]1(O)CC[C@H]2[C@@H]3CCC4=C/C(=N/OC(=O)c5cccc6cc7ccccc7nc56)CC[C@@H]4[C@H]3CC[C@@]21CC', 'GI50', '> 100 µM (inactive)'),
  ('CCN1CCC(O)(c2ccc(Oc3ccc(Cl)cc3)cc2)C(C(=O)c2ccc(Oc3ccc(Cl)cc3)cc2)C1 (stereo unspecified)', 'GI50', '21.9 µM (inactive)'),
  ('N/N=C1\C(=O)N(CCc2ccccc2)C(=O)C1C(=O)NCCc1ccccc1 (stereo unspecified)', 'GI50', '> 100 µM (inactive)'),
  ('O=C1CCCCCCCCCCC1CCCCCBr (stereo unspecified)', 'GI50', '16.9 µM (inactive)'),
  ('COC(=O)N1CCc2c(nc(N(C)CCO)[nH]c2=O)C1', 'GI50', '> 100 µM (inactive)'),
  ('O=C(c1ccc(Cl)c(Cl)c1)N(Cc1cccnc1)C(=S)N(Cc1cccnc1)C(=O)c1ccc(Cl)c(Cl)c1', 'GI50', '25.1 µM (inactive)'),
  ('Cc1cc(Cl)cc2c1NC(=O)/C2=N\Nc1ccccc1[N+](=O)[O-]', 'GI50', '> 100 µM (inactive)'),
  ('Cc1nc(-n2nc(-c3ccccc3)cc2-c2ccccc2)sc1C(/C=C/c1ccc([N+](=O)[O-])cc1)=N/NC(=O)c1ccncc1', 'GI50', '17.7 µM (inactive)'),
  ('CC(C)C(=O)NS(=O)(=O)c1ccccc1', 'GI50', '> 100 µM (inactive)'),
  ('COC(=O)/C=C(C)/C=C\COC1CCCCO1 (stereo unspecified)', 'GI50', '> 100 µM (inactive)'),
  ('c1ccc2c(Cc3c[nH]c4ccccc34)c[nH]c2c1 [ARUNDINE]', 'GI50', '22.8 µM (inactive)'),
  ('O=C(OC1C=C=CS(=O)(=O)CC#C/C=C\1)c1cnc2ccccc2n1 (stereo unspecified)', 'GI50', '> 100 µM (inactive)'),
  ('c1ccc(-c2nnc(SCc3c[nH]c4ccccc34)n2-c2ccccc2)cc1', 'GI50', '29.2 µM (inactive)'),
  ('O=C(C[N+]12CN3CN(CN(C3)C1)C2)c1ccc(-c2ccccc2)cc1', 'GI50', '18.3 µM (inactive)');

###

System: SNB-19
assay summary: NCI tumour cell line growth inhibition, 48 h
Calls of active or inactive are those of the source. No stated cut-off is given here; in the data, active = GI50 up to about 1.1 µM and inactive = higher.
endpoint: GI50

INSERT INTO measurements (compound, value_observed) VALUES
  ('Cc1cc(C)n(-c2nc(C)c(CCO)c(=O)[nH]2)n1', '> 100 µM (inactive)'),
  ('C=CCNC(=O)N(CCCC(NC(C)=O)C(=O)NCc1ccccc1)Cc1ccccc1 (stereo not given)', '> 100 µM (inactive)'),
  ('C[C@H](CCc1nc(C#N)c(N)o1)[C@H]1CC[C@H]2[C@@H]3[C@@H](O)CC4C[C@@H](O)CC[C@]4(C)[C@H]3C[C@@H](O)[C@]12C (stereo not given in full)', '23.9 µM (inactive)'),
  ('CC(=O)CCCCO', '> 100 µM (inactive)'),
  ('C[P+](c1ccccc1)(c1ccc(Cl)cc1)c1ccc(Cl)cc1', '13 µM (inactive)'),
  ('CC(=O)O[C@@H]1C(=O)N(c2ccccc2)[C@@H]1c1cc2ccccc2c2ccccc12', '73.3 µM (inactive)'),
  ('O=c1[nH]nc(Cc2ccccc2)n1/N=C/c1ccc(/C=N/n2c(Cc3ccccc3)n[nH]c2=O)cc1', '> 100 µM (inactive)'),
  ('C=C1c2cc3c(cc2CC12Cc1cc4c(cc1C2=O)CCC4)CCC3 (stereo not given)', '> 100 µM (inactive)'),
  ('COc1cccc(C(=O)O)c1Cc1cccc2ccccc12', '> 100 µM (inactive)'),
  ('O=C1NC(=O)C(C(c2ccc(Cl)cc2)C2C(=O)NC(=O)NC2=O)C(=O)N1.c1ccncc1', '> 100 µM (inactive)');

###

Test system: A498
assay summary: NCI tumour cell line growth inhibition, 48 h
The source made the active and inactive calls. Rule as the data show it: active = GI50 up to about 1.1 µM and inactive = higher.
Labels: YES = active, NO = inactive

INSERT INTO assay_data (compound, category_label) VALUES
  ('O=[N+]([O-])/C(C(Cl)=C(Cl)Cl)=C1\Nc2ccc([N+](=O)[O-])cc2N1', 'NO'),
  ('Nc1cccc2c1C(=O)c1cccc(N)c1C2=O', 'NO'),
  ('COc1cc2c(cc1O)C(=O)O[C@@H]1CC=C3CCN(C)[C@H]3[C@H]21', 'NO'),
  ('CCOP(=O)(O)C1C(CO)OC(n2ccc(=O)[nH]c2=O)C1O (stereo unspecified)', 'NO'),
  ('Cc1ccc2c(c1)nc(N)n[n+]2[O-]', 'NO'),
  ('CCCC(C)NC(=O)c1ccc(N(C)Cc2cnc3nc(N)nc(N)c3n2)cc1 (stereo unspecified)', 'NO'),
  ('O=C(NN1C(=O)C(Cl)C1c1cccc(O)c1)c1ccccc1O (stereo unspecified)', 'NO'),
  ('CCc1cccc(C(C)C)c1NC(=O)C(=O)C(CC(=O)Nc1ccc(Cl)c(Cl)c1)C(=O)OC (stereo unspecified)', 'NO'),
  ('CCc1cccc(C(C)C)c1NC(=O)CC1Sc2ccccc2NC1=O (stereo unspecified)', 'NO'),
  ('COC(O)C(=O)c1c2c(cc3c1CCC3)CCC2 (stereo unspecified)', 'NO'),
  ('O=C1c2ccccc2C(=O)N1c1ccc(OCCN2CCCCC2)cc1', 'NO'),
  ('COc1ccc2c(c1)[n+]([O-])c(-c1nc3ccccc3s1)c(N)[n+]2[O-]', 'NO'),
  ('Cn1c(CO)ccc1-c1ccc(-c2ccc[se]2)[se]1', 'YES'),
  ('Cc1ccc(S(=O)(=O)N/N=C(\c2nc3ccc(Cl)cc3nc2O)C(O)c2cccc([N+](=O)[O-])c2)cc1 (stereo unspecified)', 'NO'),
  ('O=C1/C(=C/c2ccc(O)c(O)c2)CC/C1=C\c1ccc(O)c(O)c1', 'NO'),
  ('CN(C)CCNC(=O)c1cccc2ccc(-c3ccncc3)nc12', 'NO'),
  ('COC1/C=C\OC2(C)Oc3c(C)c(O)c4c(O)c(c(CN(C)C)c(O)c4c3C2=O)NC(=O)/C(C)=C\C=C/C(C)C(O)C(C)C(O)C(C)C(OC(C)=O)C1C (stereo unspecified)', 'NO'),
  ('COc1cc(/C=N\c2ccc(C(C)C)cc2)cc(OC)c1OC', 'NO'),
  ('C=CCn1c(S)nnc1C12CC3CC(CC(C3)C1)C2', 'NO'),
  ('CN(C)c1ccc(C(C=C2c3ccccc3Sc3ccccc32)=C(C#N)C#N)cc1', 'NO'),
  ('C[P+](c1ccccc1)(c1ccc(Cl)cc1)c1ccc(Cl)cc1', 'NO');
